- target.under.test: Carbonic anhydrase 2 (Homo sapiens)
- test: Inhibition of human recombinant carbonic anhydrase-2 pre-incubated for 15 mins by stopped-flow CO2 hydration assay

- mol: "NS(=O)(=O)Oc1ccc(NC(=O)N2CCN(c3nccc(-c4cc5ccccc5o4)n3)CC2)cc1"
  Ki, nM: 1
- mol: "Cc1cccc(N2CCN(C(=O)Nc3ccc(OS(N)(=O)=O)cc3)CC2)c1"
  Ki, nM: 15.9
- mol: "NS(=O)(=O)Oc1ccc(NC(=O)N2CCN(c3ccc(F)cc3)CC2)cc1"
  Ki, nM: 18.2
- mol: "NS(=O)(=O)Oc1ccc(NC(=O)N2CCN(c3ccc(Cl)cc3)CC2)cc1"
  Ki, nM: 16.9
- mol: "COc1ccc(N2CCN(C(=O)Nc3ccc(OS(N)(=O)=O)cc3)CC2)cc1"
  Ki, nM: 9.1

----------
Listed compounds paired with reported Ki
- target.under.test: Carbonic anhydrase 12 (Homo sapiens, UniProt O43570)
- Sequence (O43570 whole entry): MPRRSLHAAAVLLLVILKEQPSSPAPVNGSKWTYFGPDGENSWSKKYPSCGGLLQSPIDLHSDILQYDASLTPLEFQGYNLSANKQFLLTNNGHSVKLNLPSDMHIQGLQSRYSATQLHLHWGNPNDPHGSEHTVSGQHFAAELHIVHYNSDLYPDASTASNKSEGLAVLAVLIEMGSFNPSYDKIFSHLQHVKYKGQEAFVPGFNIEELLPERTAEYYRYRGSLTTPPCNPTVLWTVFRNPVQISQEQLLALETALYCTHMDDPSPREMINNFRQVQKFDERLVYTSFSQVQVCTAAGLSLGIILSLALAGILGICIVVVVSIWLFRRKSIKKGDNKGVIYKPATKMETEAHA
- test: Inhibition of human recombinant carbonic anhydrase-12 pre-incubated for 15 mins by stopped-flow CO2 hydration assay

- mol: "NS(=O)(=O)Oc1ccc(NC(=O)N2CCN(c3ccc(Cl)cc3)CC2)cc1"
  Ki: "84.5 nM"
- mol: "Cc1cccc(N2CCN(C(=O)Nc3ccc(OS(N)(=O)=O)cc3)CC2)c1"
  Ki: "35.8 nM"
- mol: "NS(=O)(=O)Oc1ccc(NC(=O)N2CCN(c3nccc(-c4cc5ccccc5o4)n3)CC2)cc1"
  Ki: "1 nM"
- mol: "NS(=O)(=O)Oc1ccc(NC(=O)N2CCN(c3ccc(F)cc3)CC2)cc1"
  Ki: "64.7 nM"

----------
- target.under.test: Carbonic anhydrase 9 (Homo sapiens, UniProt Q16790)
- test: Inhibition of human recombinant carbonic anhydrase-9 pre-incubated for 15 mins by stopped-flow CO2 hydration assay
property: log10 Ki (log10 of the value in nM)

- mol: "O=C(Nc1ccc(O)cc1)N1CCN(c2ccc(F)cc2)CC1"
  log10 Ki: 1.57
- mol: "COc1cccc(N2CCN(C(=O)Nc3ccc(OS(N)(=O)=O)cc3)CC2)c1"
  log10 Ki: 1.53
- mol: "NS(=O)(=O)Oc1ccc(NC(=O)N2CCN(Cc3ccccc3)CC2)cc1"
  log10 Ki: 1.02
- mol: "NS(=O)(=O)Oc1ccc(NC(=O)N2CCN(c3nccc(-c4ccc(Br)cc4)n3)CC2)cc1"
  log10 Ki: 2.06
- mol: "Cc1cccc(N2CCN(C(=O)Nc3ccc(OS(N)(=O)=O)cc3)CC2)c1"
  log10 Ki: -0.04
- mol: "O=C(Nc1ccc(O)cc1)N1CCN(Cc2ccccc2)CC1"
  log10 Ki: 2.05
- mol: "O=C(Nc1ccc(O)cc1)N1CCN(c2ccccc2)CC1"
  log10 Ki: 2.08
- mol: "O=C(Nc1ccc(O)cc1)N1CCN(c2ccc(Cl)cc2)CC1"
  log10 Ki: 1.91
- mol: "NS(=O)(=O)Oc1ccc(NC(=O)N2CCN(c3ccc(F)cc3)CC2)cc1"
  log10 Ki: 1.79
- mol: "NS(=O)(=O)Oc1ccc(NC(=O)N2CCN(c3nccc(-c4cc5ccccc5o4)n3)CC2)cc1"
  log10 Ki: 0.83
